// provenance: PubChem BioAssay (NCI)

tested on: SK-MEL-2 melanoma; assay: NCI tumour cell line growth inhibition, 48 h; in the data active = GI50 below about 0.43 µM; inactive = the rest
Possible outcomes: TRUE for active, FALSE for inactive

# compound, label.class
data = [
    ("CC[C@]1(O)C[C@@H]2CN(CCc3c([nH]c4ccccc34)[C@@](C(=O)OC)(c3cc4c(cc3OC)N(C)[C@H]3[C@@](O)(C(=O)OC)[C@H](OC(C)=O)[C@]5(CC)C=CCN6CC[C@]43[C@@H]65)C2)C1", "TRUE"),
    ("Oc1ccc(NCc2nc3ccccc3[nH]2)cc1", "FALSE"),
    ("CC(C)(C)OC(=O)N1CCc2c(sc3ncnc(N/N=C/c4cccc5ccccc45)c23)C1", "FALSE"),
    ("OCC(O)CC[CH2][Sn]([Br])([c]1ccccc1)[c]1ccccc1 (stereo not given)", "FALSE"),
    ("COc1cc(C2=NOC(c3cc(OC)c(OC)c(OC)c3)C2)ccc1OCCCCOc1cc2c(cc1OC)C(=O)N1CCC[C@H]1C=N2 (stereo not given in full)", "TRUE"),
    ("CCc1ccc(/C=C\\c2cc(OC)c(OC)c(OC)c2)cc1", "TRUE"),
    ("N#CSc1c[nH]c2cccc(/C=C/C(=O)/C=C(/C=C/c3cccc4[nH]cc(SC#N)c34)OB(F)F)c12", "FALSE"),
    ("COc1ccc(/C(COc2c(-c3ccccc3)oc3ccccc3c2=O)=N\\O)cc1", "FALSE"),
    ("N#Cc1c(-c2ccc(F)cc2)nc(N/N=C/c2c[nH]c3ccccc23)nc1N1CCOCC1", "FALSE"),
    ("COc1ccc(-c2cnnc3c(-c4cccc(C(F)(F)F)c4)cnn23)cc1", "FALSE"),
]

* * *

test system: SR leukemia; assay: NCI tumour cell line growth inhibition, 48 h
Listed here are compounds together with their documented TGI.

# compound, target.entity, TGI
data = [
    ("COC12C=C(C)C(CC1)CC2C(=O)O (centres undefined)", "SR leukemia", "> 100 µM"),
    ("COc1ccc2c(c1)CC1=C(O2)c2ccc(OC)cc2OC1", "SR leukemia", "> 100 µM"),
    ("COC(=O)C1=Nc2c(C)nn(-c3ccccc3)c2N=C(c2ccc([N+](=O)[O-])cc2)C1", "SR leukemia", "> 10 µM"),
    ("COc1c(Br)cc(CC(N)=O)c(O)c1Br", "SR leukemia", "> 100 µM"),
    ("COC1(OC)CCCCC2c3cccc(OC(C)=O)c3C21OC(C)=O (centres undefined)", "SR leukemia", "> 100 µM"),
    ("CN1CCN(C)C12C=c1ccccc1=CC21CC1", "SR leukemia", "63.2 µM"),
    ("C=C1C(=O)O[C@@]23C1CC[C@@H](C)C2CC[C@@]1(C)OC31 (some centres undefined)", "SR leukemia", "33.2 µM"),
    ("COc1ccc(-c2cc(=O)c3ccc(O)cc3o2)cc1OC", "SR leukemia", "> 100 µM"),
    ("O=c1c2ccccc2nc(Nc2cccc(Cl)c2)n1/N=C/C=C/c1ccccc1", "SR leukemia", "> 100 µM"),
    ("C=CC(=O)N1CC2(CCN(c3nc(OC4CCN(CCCOC)CC4)nc4c(OCC(F)(F)F)c(-c5c(C)ccc6[nH]ncc56)c(C5CC5)cc34)CC2)C1", "SR leukemia", "4.77 µM"),
    ("O=c1oc2cc(O)ccc2c(O)c1C(c1ccc(C(c2c(O)c3ccc(O)cc3oc2=O)c2c(O)c3ccc(O)cc3oc2=O)cc1)c1c(O)c2ccc(O)cc2oc1=O", "SR leukemia", "> 100 µM"),
    ("O/N=C/C1c2ccccc2-c2ccccc21", "SR leukemia", "51.7 µM"),
    ("Brc1cc2nn(-c3ccccc3)nc2c2nonc12", "SR leukemia", "> 100 µM"),
    ("NC(=O)c1ccc(I)c(N)c1", "SR leukemia", "> 100 µM"),
    ("Oc1ccc(NCc2nc3ccccc3[nH]2)cc1", "SR leukemia", "> 100 µM"),
    ("N#Cc1c(-c2ccc(F)cc2)nc(N/N=C/c2c[nH]c3ccccc23)nc1N1CCOCC1", "SR leukemia", "24 µM"),
    ("COC(=O)[C@]12CC[C@@H](C)[C@H](C)[C@@H]1C1=CC[C@@H]3[C@@]4(C)C/C(=N\\O)[C@H](O)[C@@]5(C)COC(=C45)C[C@@]3(C)[C@]1(C)CC2", "SR leukemia", "5.77 µM"),
    ("O=C1CCCCN1CCCCC#Cc1ccccc1C#Cc1ccc([N+](=O)[O-])cc1", "SR leukemia", "2.14 µM"),
    ("COC1/C=C\\C=C(/C)C(=O)NC2=CC(=O)C(=O)C(=C2O)CC(C)CC(OC)C(O)C(C)/C=C(\\C)C1OC(N)=O (centres undefined)", "SR leukemia", "25 µM"),
    ("O=c1[nH]nc(-c2ccccc2)c2[nH]c(-c3ccccc3)cc12", "SR leukemia", "> 100 µM"),
    ("O=C(Cc1ccc([N+](=O)[O-])cc1)OCC#CCOC(=O)Cc1ccc([N+](=O)[O-])cc1", "SR leukemia", "> 10 µM"),
    ("COC(=O)C1CC2(c3ccccc3)C(=O)c3ccccc3N2O1 (centres undefined)", "SR leukemia", "65.3 µM"),
    ("CC(=O)OCCN1c2ccccc2Sc2cnccc21", "SR leukemia", "> 10 µM"),
    ("O=C(CSc1n[nH]c(=O)[nH]c1=O)NNC(=O)c1cccc2nc3ccccc3nc12", "SR leukemia", "> 100 µM"),
]
